species on record: Rattus norvegicus; test: Neuroprotective action was estimated in terms of its inhibitory concentration against [Fe2+]/AA- induced toxicity; type: functional
IC50 listing for selected molecules.
endpoint: IC50 (µM)

INSERT INTO results (structure_string, endpoint, value_observed) VALUES
  ('CCCCOc1cc(CC(=O)NCCCc2ccc(C)c(C)c2)ccc1O', 'IC50', 4.2),
  ('COc1cc(/C=C/C(=O)NCCCc2ccc(C)c(C)c2)cc(OC)c1O', 'IC50', 5.4),
  ('Cc1ccc(CCCNC(=O)Cc2ccc(O)c(OC(C)C)c2)cc1C', 'IC50', 34.2);
